IC50 listing for selected molecules.
EXPERIMENTAL TARGET: recombinant human His-tagged MDM2 protein (residues 1-118) (Homo sapiens (Human), UniProt Q00987)
Sequence (Q00987 1-118): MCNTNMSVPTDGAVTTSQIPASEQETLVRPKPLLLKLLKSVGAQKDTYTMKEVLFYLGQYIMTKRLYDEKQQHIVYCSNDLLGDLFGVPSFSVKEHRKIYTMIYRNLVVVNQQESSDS
EXPERIMENT NOTES: Fluorescence-polarization MDM2 binding assay;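 note: fluorescence polarization read after three hours of incubation in potassium phosphate buffer containing bovine gamma globulin and Triton X-100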
EXPERIMENTAL SETUP: Table 19A; FP binding assay; read-out: MDM2 IC50

Examples from the recorded data:
CC(C)(C)C[C@H]1N[C@@H](C(=O)NC2CCC(NS(C)(=O)=O)CC2)[C@H](c2cccc(Cl)c2F)[C@@]12C(=O)Nc1cc(Cl)ccc12 (stereo partly drawn) [MI-771] = < 1000 nM
CN1CCN(C(=O)[C@@H]2N[C@H](CC(C)(C)C)[C@]3(C(=O)Nc4cc(Cl)c(F)cc43)[C@H]2c2cccc(Cl)c2)CC1 = < 5000 nM
CCNC(=O)N1CCC(NC(=O)[C@@H]2N[C@H](CC(C)(C)C)[C@]3(C(=O)Nc4cc(Cl)ccc43)[C@H]2c2cccc(Cl)c2F)CC1 = < 100 nM
CC(C)(C)C[C@H]1N[C@@H](C(=O)NC2CCN(CC(C)(C)O)CC2)[C@H](c2cccc(Cl)c2F)[C@@]12C(=O)Nc1cc(Cl)ccc12 = < 500 nM
CC(C)(C)C[C@H]1N[C@@H](C(=O)NCCC(C)(O)CO)[C@H](c2cccc(Cl)c2)[C@@]12C(=O)Nc1cc(Cl)c(F)cc12 (stereo partly drawn) = < 1000 nM

From here, focus on the item given below.
query: Which measured IC50 value corresponds to CC(C)(C)C[C@H]1N[C@@H](C(=O)NCCCN2CCN(C3CC3)CC2)[C@H](c2cccc(Cl)c2F)[C@@]12C(=O)Nc1cc(Cl)ccc12 ?
result: < 10000 nM
